- System: HOP-62 NSCLC
- protocolSummary: NCI tumour cell line growth inhibition, 48 h
metric: TGI

Reference set, count: 5
>  <compound>
c1ccc2cc(C3NCCc4[nH]cnc43)ccc2c1 (stereo not given)

>  <result>
> 100 µM

$$$$
>  <compound>
Nc1nc2ccc(CNc3ccc(C(=O)NC(CC(=O)O)C(=O)O)cc3)cc2c(=O)[nH]1 (stereo not given)

>  <result>
> 100 µM

$$$$
>  <compound>
CSC12c3cc(C)n(-c4ccc(I)cc4)c3CC(C)(C)CN1C(=O)C2Oc1ccccc1 (stereo not given)

>  <result>
> 100 µM

$$$$
>  <compound>
Cc1ccc(S(=O)(=O)c2ccc(C)cc2[N+](=O)[O-])c([N+](=O)[O-])c1

>  <result>
> 100 µM

$$$$
>  <compound>
CN(C)c1n2c3ccc([N+](=O)[O-])cc3n3c(N(C)C)[n+]4ccccc4c3c2c2cccc[n+]12

>  <result>
> 100 µM

$$$$

Attention now shifts to the item below.
Prompt: Would you kindly share the measured TGI for COc1ccc(OC)c(C2=C(c3cn(C)c4ccccc34)C(=O)NC2=O)c1 ?
Completion: > 25 µM

Source of measurements: PubChem BioAssay (NCI)
